target: Gastrin-releasing peptide receptor (Rattus norvegicus, UniProt P52500); test: In vitro binding affinity of [111In]DTPA-[Y4]-bombesin to bombesin receptor in the rat pancreatic acinar cell line, AR42J
Sequence (P52500 whole entry): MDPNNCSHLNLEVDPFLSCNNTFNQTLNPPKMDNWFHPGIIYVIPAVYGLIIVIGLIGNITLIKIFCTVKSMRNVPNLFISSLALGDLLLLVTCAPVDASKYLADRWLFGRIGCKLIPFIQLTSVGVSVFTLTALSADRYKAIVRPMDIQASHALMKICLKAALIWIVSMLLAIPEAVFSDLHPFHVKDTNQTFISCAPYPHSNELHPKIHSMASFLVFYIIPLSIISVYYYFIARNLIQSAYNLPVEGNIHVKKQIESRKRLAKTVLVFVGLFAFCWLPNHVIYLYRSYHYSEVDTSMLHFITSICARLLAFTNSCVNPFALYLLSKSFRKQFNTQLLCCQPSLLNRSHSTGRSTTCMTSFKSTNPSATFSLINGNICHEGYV
Experimental endpoint: IC50 (nM)

[[record]]
chemical_structure = "CSCC[C@H](NC(=O)[C@H](CC(C)C)NC(=O)[C@H](Cc1c[nH]cn1)NC(=O)CNC(=O)[C@@H](NC(=O)[C@H](C)NC(=O)[C@H](Cc1c[nH]c2ccccc12)NC(=O)[C@H](CCC(N)=O)NC(=O)[C@H](CC(N)=O)NC(=O)CNC(=O)[C@H](Cc1ccc(O)cc1)NC(=O)[C@H](CCCN=C(N)N)NC(=O)[C@H](CCC(N)=O)NC(=O)[C@@H]1CCCN1C(=O)CN(CCN(CCN(CC(=O)O)CC(=O)O)CC(=O)O)CC(=O)O)C(C)C)C(N)=O"
experimental_endpoint = "IC50"
recorded_value = 4.7

[[record]]
chemical_structure = "CSCC[C@H](NC(=O)[C@H](CC(C)C)NC(=O)[C@H](Cc1c[nH]cn1)NC(=O)CNC(=O)[C@@H](NC(=O)[C@H](C)NC(=O)[C@H](Cc1c[nH]c2ccccc12)NC(=O)[C@H](CCC(N)=O)NC(=O)CNC(=O)[C@H](CO)NC(=O)CNC(=O)[C@@H](N)CCCCNC(=S)Nc1ccc2c(c1)C(=O)OC21c2ccc(O)cc2Oc2cc(O)ccc21)C(C)C)C(N)=O"
experimental_endpoint = "IC50"
recorded_value = 9.6

[[record]]
chemical_structure = "CSCC[C@H](NC(=O)[C@H](CC(C)C)NC(=O)[C@H](Cc1c[nH]cn1)NC(=O)CNC(=O)[C@@H](NC(=O)[C@H](C)NC(=O)[C@H](Cc1c[nH]c2ccccc12)NC(=O)[C@H](CCC(N)=O)NC(=O)[C@H](CCCCNC(=S)Nc1ccc2c(c1)C(=O)OC21c2ccc(O)cc2Oc2cc(O)ccc21)NC(=S)Nc1ccc2c(c1)C(=O)OC21c2ccc(O)cc2Oc2cc(O)ccc21)C(C)C)C(N)=O"
experimental_endpoint = "IC50"
recorded_value = 9.5


====

target: Gastrin-releasing peptide receptor (Rattus norvegicus, UniProt P52500); test: In vitro binding affinity of [111In]DTPA-[Y4]-bombesin to bombesin receptor in the rat pancreatic acinar cell line, AR42J
pIC50: −log10 of the molar value.
Experimental endpoint: pIC50

[[record]]
chemical_structure = "CSCC[C@H](NC(=O)[C@H](CC(C)C)NC(=O)[C@H](Cc1c[nH]cn1)NC(=O)CNC(=O)[C@@H](NC(=O)[C@H](C)NC(=O)[C@H](Cc1c[nH]c2ccccc12)NC(=O)[C@H](CCC(N)=O)NC(=O)[C@H](CCCCNC(=S)Nc1ccc2c(c1)C(=O)OC21c2ccc(O)cc2Oc2cc(O)ccc21)NC(=O)CN(CCN(CCN(CC(=O)O)CC(=O)O)CC(=O)O)CC(=O)O)C(C)C)C(N)=O"
recorded_value = 6.56

[[record]]
chemical_structure = "CSCC[C@H](NC(=O)[C@H](CC(C)C)NC(=O)[C@H](Cc1c[nH]cn1)NC(=O)CNC(=O)[C@@H](NC(=O)[C@H](C)NC(=O)[C@H](Cc1c[nH]c2ccccc12)NC(=O)[C@H](CCC(N)=O)NC(=O)CNC(=O)[C@H](CO)NC(=O)CNC(=O)[C@H](CCCCNC(=S)Nc1ccc2c(c1)C(=O)OC21c2ccc(O)cc2Oc2cc(O)ccc21)NC(=S)Nc1ccc2c(c1)C(=O)OC21c2ccc(O)cc2Oc2cc(O)ccc21)C(C)C)C(N)=O"
recorded_value = 7.69

[[record]]
chemical_structure = "CSCC[C@H](NC(=O)[C@H](CC(C)C)NC(=O)[C@H](Cc1c[nH]cn1)NC(=O)CNC(=O)[C@@H](NC(=O)[C@H](C)NC(=O)[C@H](Cc1c[nH]c2ccccc12)NC(=O)[C@H](CCC(N)=O)NC(=O)CNC(=O)[C@H](CO)NC(=O)CNC(=S)Nc1ccc2c(c1)C(=O)OC21c2ccc(O)cc2Oc2cc(O)ccc21)C(C)C)C(N)=O"
recorded_value = 8.04

